# assay system: MEK
# procedure details: Cascade assay for inhibitors of the MAP kinase pathway (In Vitro)
measurement kind: IC50 (µM)

Past entries and their recorded results:
CCN(CC)C(=O)c1cc(Cl)ccc1Nc1ccc(I)cc1C [Example 47] | 1.91
Cc1cc(I)ccc1Nc1cc(F)ccc1C(=O)Nc1nnn[nH]1 [Example 37] | 0.237
Cc1c(Nc2cc(F)ccc2C(=O)O)ccc(I)c1F [Example 10] | 0.101

[A] Cc1cc(I)ccc1Nc1ccc(Cl)cc1C(=O)NC1CC1 [Example 192]
[B] Cc1cc(I)ccc1Nc1ccc([N+](=O)[O-])cc1C(=O)N1CCC(O)C1 (stereo not shown) [Example 95]
[C] CNC(=O)c1ccc(F)cc1Nc1ccc(I)cc1C [Example 34]
[D] Cc1cc(Br)ccc1Nc1cc(F)ccc1C(=O)O [Example 13]
// query Thanks in advance: please rank these 4 entries by IC50, highest to lowest. List each label, following the requested order.
// result A, B, D, C
(A: 1.8 µM, B: 1 µM, D: 0.178 µM, C: 0.098 µM)

[I] O=C(O)c1cccc(Cl)c1Nc1ccc(I)cc1Cl [Example 25]
[II] Cc1cc(I)ccc1Nc1c(C(=O)NN2CCN(C)CC2)cc(Br)c(F)c1F [Example 222]
// query Out of I and II , name the one with the higher IC50. Provide the label of your selected option as the answer.
// result I
(I: 2.36 µM, II: 0.085 µM)

Taken from patent EP0993437B1.
